Source: PubChem BioAssay (NCI)

Tested on: SN12C renal
Assay: NCI-60 one-dose screen, 48 h
Settings: 10 µM unless noted
Description: Growth inhibition of the SN12C human tumor cell line is measured as a screen for anti-cancer activity. Cells are grown in 96 well plates and exposed to the test compound for 48 hours. Compounds are tested at a single concentration, which is 10^-5 M for most compounds. The reported endpoint is percent growth (GI% or GIPRCNT), where numbers from 0 - 100% represent growth inhibition, and numbers from -100% - 0 represent cell death. For example, a value of 40 represents 60% growth inhibition. […]
The panel holds about 83,000 compounds, 20% with a hit somewhere; the sample as a whole holds those more often. The source made the active and inactive calls. The calls were made as follows: active = growth percent below 10; inactive = the rest.
Labels: active, inactive

compound	cat
CCCCCn1c(=N)n(CC(O)COc2cccc(C)c2)c2ccccc21 (configuration not stated)	inactive
N#C/C(=C\c1ccc[nH]1)c1cc2ccccc2[nH]1	inactive
Cc1cc(=O)c2c(C)ccc(C)c2[nH]1	inactive
CON=C1C[C@]2(C[C@@H]3C[C@@H](C/C=C(\C)C[C@@H](C)/C=C/C=C4\CO[C@@H]5[C@H](O)C(C)=C[C@@H](C(=O)O3)[C@]45O)O2)O[C@H](/C(C)=C/C(C)C)[C@H]1C	inactive
COc1cc(Cn2cc(F)c(=O)[nH]c2=O)cc(OC)c1	inactive
CCCN1CCN(c2ccc3nc(-c4ccc5nc(-c6ccc(C(F)(F)F)cc6)[nH]c5c4)[nH]c3c2)CC1	active
Cc1ccc(-c2nnc(COc3ccc(-c4nnc(N)s4)cc3)o2)cc1	inactive
C=CC(=O)N1CC2(CCC(n3nc(-c4ccc(Oc5ccccc5)cc4)c4c(N)ncnc43)CC2)C1	active
O=C1C(Cl)=C(NCCCN2CCOCC2)C(=O)c2ccccc21	inactive
Clc1ccccc1Nc1ccc2nnc(-c3ccncc3)n2n1	inactive
Cc1nc2cc(Nc3nc(NCCO)nc(Nc4ccc(F)cc4)n3)ccc2n1Cc1ccccc1	inactive
CC(C)N1CCN(c2ccc(OC[C@H]3CO[C@](Cn4cncn4)(c4ccc(Cl)cc4Cl)O3)cc2)CC1	inactive
